// data source = PubChem BioAssay (NCI)

tested on: MOLT-4 leukemia; experiment: NCI tumour cell line growth inhibition, 48 h
observation-type: TGI

Examples with their reported TGI follow.
[
  {
    "molecule": "CCOC(=O)C1c2[nH]c3ccccc3c2CCN1C(=O)c1ccco1 (configuration not stated)",
    "TGI": "> 10 µM"
  },
  {
    "molecule": "O=C1NCC2(CCN(Cc3ccccc3)CC2)N1",
    "TGI": "> 100 µM"
  },
  {
    "molecule": "COc1ccc(S(=O)(=O)N2CCN(C(=O)OCc3ccccc3)CC2C(=O)NO)cc1 (configuration not stated)",
    "TGI": "18.4 µM"
  },
  {
    "molecule": "CCOC(=O)N1CC2(C(=O)OC)C=CC1C(C(=O)OC)C2 (configuration not stated)",
    "TGI": "> 100 µM"
  },
  {
    "molecule": "CC(N)C(=O)c1ccc(O)cc1 (configuration not stated)",
    "TGI": "> 100 µM"
  }
]

Provide TGI for all items below, preserving their order.
1. CCOc1ccc(C2=C(Cl)c3cc(OC)c(OC)cc3C2Cl)cc1 (configuration not stated)
2. CC(=O)OCc1cccc(O)c1C(=O)CCC=C(C)C
3. CC1(C)CC(=O)C(C(c2cccc(O)c2O)C2C(=O)CC(C)(C)CC2=O)C(=O)C1
4. O=C(O)Cn1nnc2c(=O)[nH][nH]c(=O)c21
5. NC(=O)Cc1ncn(-c2ccccc2)n1

[A]
1: 78.4 µM; 2: > 100 µM; 3: > 100 µM; 4: > 10 µM; 5: > 100 µM

Batch request: TGI for each of the following molecules.
1. COc1ccc(CN2C(=O)C(Cc3cc(OC)c(OC)c(C)c3OC)N(C(=O)OC(C)C)C(=O)/C2=C/c2cc(OC)c(OC)c(C)c2OC)cc1 (configuration not stated)
2. CCCn1cc(C2=C(c3cn(C)c4ccccc34)C(=O)NC2=O)c2ccccc21

[A]
["> 100 µM", "> 17.8 µM"]

---

tested on: OVCAR-3 ovarian; assay: NCI tumour cell line growth inhibition, 48 h
observation-type: GI50

Recorded results for 5 compounds are shown here.
[
  {
    "compound": "CCOCCc1c(O)nc(SC)[nH]c1=O",
    "system-under-test": "OVCAR-3 ovarian",
    "GI50": "> 100000 nM"
  },
  {
    "compound": "COc1ccc(-c2cc(-c3ccc(O)cc3)nc3nc(=S)[nH]c(N)c23)cc1",
    "system-under-test": "OVCAR-3 ovarian",
    "GI50": "16400 nM"
  },
  {
    "compound": "COC1OCC(OS(=O)(=O)c2ccc(C)cc2)C(OC(=O)c2ccccc2)C1OC(=O)c1ccccc1 (stereo unspecified)",
    "system-under-test": "OVCAR-3 ovarian",
    "GI50": "2950 nM"
  },
  {
    "compound": "O=C(CCCCC(=O)N/N=C\\c1ccccc1Cl)N/N=C\\c1ccccc1Cl",
    "system-under-test": "OVCAR-3 ovarian",
    "GI50": "598 nM"
  },
  {
    "compound": "NC(=O)c1nnn(Cc2cc(Cl)c(C(=O)c3ccc(Cl)cc3)c(Cl)c2)c1N",
    "system-under-test": "OVCAR-3 ovarian",
    "GI50": "> 9090 nM"
  }
]

For every item below, please supply its GI50.
1. C=CCCC(O)c1ccc(C(O)CCCCCCCCCCCC)o1 (stereo unspecified)
2. O=C1Nc2cc(Cl)ccc2Oc2cc(Oc3ccccc3)ccc21
3. O=C(/C=C/c1ccccn1)c1ccccc1O
4. COc1cc(-c2cc(/C=C/C(=O)c3ccc4c(c3)OCO4)[nH]n2)cc(OC)c1OC

[A]
1. 18700 nM
2. 2530 nM
3. 1710 nM
4. 3380 nM

Batch request: GI50 for each of the following compounds.
1. CN(C)CCCNC(=O)c1cc(NC(=O)CCNC(=O)c2ccc3c(c2)C(=O)c2ccccc2C3=O)cn1C
2. CCOC(=O)c1ccc2c(c1)[n+](=O)c(C(=O)c1ccc3ccccc3c1)c(C(F)(F)F)n2[O-]
3. COc1ccccc1CNCCCN1C(=O)c2ccc3c4c(ccc(c24)C1=O)C(=O)N(CCCNCCCCNCCCCN)C3=O
4. C=C1C(=O)O[C@H]2[C@H]1CC/C(C=Nc1ccc(C(F)(F)F)cc1N)=C\CC[C@@]1(C)O[C@@H]21
5. O=C(CSc1nc2ccc([N+](=O)[O-])cc2[nH]1)Nc1cccc(Cl)c1
6. O=S(=O)(O)c1ccc(Cl)cc1.[Cd]

[A]
1: 33200 nM; 2: 749 nM; 3: 475 nM; 4: 2750 nM; 5: 2380 nM; 6: 18500 nM

[Q] GI50 lookup needed for C[As](C)Sc1ccnc(S[As](C)C)n1 , thanks.
[A] 3910 nM

---

Record form. Attribute: TGI. Fill in for each entry.
test system: MDA-MB-231 breast; assay: NCI tumour cell line growth inhibition, 48 h
Numbers only, in µM.

Example entries and their recorded answers appear below.
[
  {
    "compound": "COc1ccc(/C=C/C(=O)c2nc3ccccc3[nH]2)cc1",
    "numeric-readout": 48.9
  },
  {
    "compound": "Cc1cc(Cl)ccc1NC(=O)/C(Cl)=C(/Cl)C(=O)O",
    "numeric-readout": 47.8
  }
]

[Q] I would be grateful if you could share the reported TGI for Cn1cc(C2=C(c3c4n(c5ccccc35)CC(CN)C4)C(=O)NC2=O)c2ccccc21 (stereo unspecified) .
[A] 9.76

---

system: CAKI-1 renal; assay: NCI tumour cell line growth inhibition, 48 h; in the data active = GI50 below about 0.43 µM; inactive = the rest
Hi there, use one of these labels in your reply, thanks! active, inactive

Answered cases to consult:
[
  {
    "compound": "CC1(C)CC(=O)C2=C(C1)NC(SSC1=C(C#N)C(c3ccc(Br)cc3)C3=C(CC(C)(C)CC3=O)N1)=C(C#N)C2c1ccc(Br)cc1 (centres undefined)",
    "discrete-label": "inactive"
  },
  {
    "compound": "CCCN(CCC)c1ccc(C=O)cc1",
    "discrete-label": "inactive"
  },
  {
    "compound": "C=C1C(=O)O[C@H]2[C@H]1CC/C(COC(=O)/C=C\\C(=O)NCc1ccc(Cn3c(=O)sn(-c4ccc(OC)cc4)c3=O)cc1)=C\\CC[C@@]1(C)O[C@@H]21",
    "discrete-label": "active"
  },
  {
    "compound": "COc1ccc2nc3cccc([N+](=O)[O-])c3c(NCCN(CCO)CCO)c2c1",
    "discrete-label": "active"
  },
  {
    "compound": "COC1OCC(OS(=O)(=O)c2ccc(C)cc2)C(OC(=O)c2ccccc2)C1OC(=O)c1ccccc1 (centres undefined)",
    "discrete-label": "inactive"
  },
  {
    "compound": "COc1ccc(Nc2c3c4c(cccc4[nH]c2=O)C(=O)c2ccccc2-3)cc1",
    "discrete-label": "active"
  }
]

[Q] Test call for this compound, please: Nc1ncnc2c1c(-c1cccc(OCc3ccccc3)c1)cn2C1CC(CN2CCCC2)C1 (centres undefined)
[A] inactive

[Q] Lab log entry: O=C(/C=C/c1ccccn1)c1ccccc1O — outcome as called in the assay?
[A] inactive

[Q] Entry COc1ccc(S(=O)(=O)N2CCN(C(=O)OCc3ccccc3)CC2C(=O)NO)cc1 (centres undefined) : call = ?
[A] inactive

---

tested on: MALME-3M melanoma; test: NCI tumour cell line growth inhibition, 48 h
observation-type: TGI

Some solved cases for reference:
[
  {
    "chemical-string": "C[N+](C)(C)CCC(=O)N1C/C(=C\\c2ccccc2)C(=O)/C(=C/c2ccccc2)C1",
    "observation-type": "TGI",
    "result": "30.4 µM"
  },
  {
    "chemical-string": "Nc1ccccc1/C=N\\Nc1ccccc1",
    "observation-type": "TGI",
    "result": "> 100 µM"
  },
  {
    "chemical-string": "COc1ccc(-c2nc(N)c(C#N)c3c2CCSc2ccc(C)cc2-3)cc1OC",
    "observation-type": "TGI",
    "result": "> 100 µM"
  },
  {
    "chemical-string": "C=C1C(=O)O[C@H]2[C@H]1CC/C(C=Nc1ccc(C(F)(F)F)cc1N)=C\\CC[C@@]1(C)O[C@@H]21",
    "observation-type": "TGI",
    "result": "26.2 µM"
  },
  {
    "chemical-string": "CCOC(=O)c1c[nH]c2c(OCc3ccccc3)c3ccccc3c(O)c2c1=O",
    "observation-type": "TGI",
    "result": "26.6 µM"
  }
]

For the 2 compounds below, give their TGI values.
1. CCCCCCc1cc2cc(C(=O)Nc3ccccc3F)c(=N)oc2cc1O
2. O=C(CCCCC(=O)N/N=C\c1ccccc1Cl)N/N=C\c1ccccc1Cl

[A]
57.6 µM
> 100 µM
